Biological target: T1, Human IL2Rγ extracellular domain expressed with a C-terminal myc-myc-hexahistidine tag (human)
T1 construct: also called hIL-2Rg-MMH; hIL-2RG-MMH
T1 chain: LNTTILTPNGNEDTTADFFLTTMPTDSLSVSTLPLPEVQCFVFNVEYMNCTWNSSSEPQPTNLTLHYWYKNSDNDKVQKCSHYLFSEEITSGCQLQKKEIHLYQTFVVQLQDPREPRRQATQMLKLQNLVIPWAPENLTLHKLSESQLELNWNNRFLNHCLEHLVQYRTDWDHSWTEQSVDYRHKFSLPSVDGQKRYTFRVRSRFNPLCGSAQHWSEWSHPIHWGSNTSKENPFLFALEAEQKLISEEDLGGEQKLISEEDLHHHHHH
Assay: SPR, captured mAb, 37C, dissociation pH 7.4
Listed below: t1/2 values for each entry.
Give your result in min as a bare value.

Solved cases (2 shown):
H4H12858P (antibody, human IgG4 S228P, kappa, V domains shown, anti-IL2Rgamma mAb expressed with human IgG4 Fc; also called REGN9433) VH: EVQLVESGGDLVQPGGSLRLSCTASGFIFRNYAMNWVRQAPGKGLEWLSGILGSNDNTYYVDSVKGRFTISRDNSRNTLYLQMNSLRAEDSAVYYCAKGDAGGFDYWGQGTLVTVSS VL: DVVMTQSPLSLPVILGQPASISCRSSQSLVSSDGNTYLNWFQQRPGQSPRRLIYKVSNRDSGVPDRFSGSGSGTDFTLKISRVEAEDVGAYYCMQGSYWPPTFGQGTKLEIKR ... 17
H4H12889P (antibody, human IgG4 S228P, kappa, V domains shown, anti-IL2Rgamma mAb expressed with human IgG4 Fc; also called REGN7257) VH: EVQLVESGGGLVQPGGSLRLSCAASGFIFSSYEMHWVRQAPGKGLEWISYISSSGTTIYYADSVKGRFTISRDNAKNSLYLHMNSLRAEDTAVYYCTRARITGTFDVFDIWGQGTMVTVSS VL: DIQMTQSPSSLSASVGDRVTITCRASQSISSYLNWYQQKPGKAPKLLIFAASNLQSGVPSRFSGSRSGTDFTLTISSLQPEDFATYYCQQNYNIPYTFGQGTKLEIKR ... 18

// next item, t1/2 requested
Any idea what its t1/2 is? The binder is H4H12899P (antibody, human IgG4 S228P, kappa, V domains shown, anti-IL2Rgamma mAb expressed with human IgG4 Fc) VH: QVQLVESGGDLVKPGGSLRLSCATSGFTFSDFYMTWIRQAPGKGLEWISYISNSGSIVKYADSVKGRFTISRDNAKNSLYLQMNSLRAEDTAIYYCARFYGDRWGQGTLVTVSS VL: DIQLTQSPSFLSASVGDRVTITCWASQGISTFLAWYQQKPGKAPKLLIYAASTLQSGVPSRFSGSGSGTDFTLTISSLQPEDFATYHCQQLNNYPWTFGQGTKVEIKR 17
